# subject_of_test: MMP-13 (Homo sapiens, UniProt P45452)
# Construct: purchased GenzymeTechne
# assay_method_text: MMP-13 inhibitory activity (fluorogenic substrate Cy3-PLGLK(Cy5Q)AR-NH2 enzyme assay)
# Format: biochemical
# run_conditions: compound 1 μM; 37° C., 40 min; APMA-activated MMP-13 precursor; read-out: MMP-13 inhibitory rate (%) at 1 μM
value_type: inhibition at 1 µM (%)

[[record]]
line_notation = "N#Cc1ccc2nc(C(=O)NCc3cccc(OCCOc4nc[nH]n4)c3)[nH]c(=O)c2c1"
reported_result = 97

[[record]]
line_notation = "Cc1sc2nc(C(=O)NCc3cccc(OCCSc4nc[nH]n4)c3)[nH]c(=O)c2c1C"
reported_result = 98

[[record]]
line_notation = "Cc1cc2c(=O)[nH]c(C(=O)NCc3cccc(OCCSc4nc[nH]n4)c3)nc2s1"
reported_result = 97

[[record]]
line_notation = "O=C(NCc1cccc(OCCSc2nc[nH]n2)c1)c1nc2ccc(Cl)cc2c(=O)[nH]1"
reported_result = 97

[[record]]
line_notation = "O=C(NCc1cccc(OCCSc2nc[nH]n2)c1)c1nc2cccc(F)c2c(=O)[nH]1"
reported_result = 98

[[record]]
line_notation = "N#Cc1ccc2nc(C(=O)NCc3cccc(NC(=O)c4nc[nH]n4)c3)[nH]c(=O)c2c1"
reported_result = 85

[[record]]
line_notation = "O=C(NCc1cccc(OCCSc2nc[nH]n2)c1)c1nc2sccc2c(=O)[nH]1"
reported_result = 97

[[record]]
line_notation = "CCOC(=O)c1ccc(COCc2csc3nc(C(=O)NCc4ccnc(OCCCc5nc[nH]n5)c4)[nH]c(=O)c23)cc1"
reported_result = 96

[[record]]
line_notation = "N#Cc1ccc2nc(C(=O)NCc3cccc(OCCCCSc4nc[nH]n4)c3)[nH]c(=O)c2c1"
reported_result = 97

[[record]]
line_notation = "N#Cc1ccc2nc(C(=O)NCc3cccc(CNC(=O)Cc4nc[nH]n4)c3)[nH]c(=O)c2c1"
reported_result = 90

[[record]]
line_notation = "O=C(O)c1ccc(CCOc2c(F)ccc3nc(C(=O)NCc4cccc(OCCOc5nc[nH]n5)c4)[nH]c(=O)c23)cc1"
reported_result = 100

[[record]]
line_notation = "O=C(NCc1cccc(OCCSc2nc[nH]n2)c1)c1nc2ccc(F)cc2c(=O)[nH]1"
reported_result = 98

[[record]]
line_notation = "N#Cc1ccc2nc(C(=O)NCc3cccc(CNC(=O)c4nc[nH]n4)c3)[nH]c(=O)c2c1"
reported_result = 97

[[record]]
line_notation = "Cc1csc2nc(C(=O)NCc3cccc(NC(=O)c4nc[nH]n4)c3)[nH]c(=O)c12"
reported_result = 81

[[record]]
line_notation = "O=C(NCc1cccc(COCc2nc[nH]n2)c1)c1nc2ccccc2c(=O)[nH]1"
reported_result = 96

[[record]]
line_notation = "Cc1csc2nc(C(=O)NCc3ccnc(OCCCc4nc[nH]n4)c3)[nH]c(=O)c12"
reported_result = 93


###

# subject_of_test: MMP-13 (Homo sapiens, UniProt P45452)
# Construct: purchased GenzymeTechne
# assay_method_text: MMP-13 inhibitory activity (fluorogenic substrate Cy3-PLGLK(Cy5Q)AR-NH2 enzyme assay)
# Assay type: biochemical
# run_conditions: compound 1 μM; 37° C., 40 min; APMA-activated MMP-13 precursor; read-out: MMP-13 inhibitory rate (%) at 1 μM
value_type: inhibition at 1 µM (%)

[[record]]
line_notation = "Nc1ccc2nc(C(=O)NCc3cccc(OCCSc4nc[nH]n4)c3)[nH]c(=O)c2c1"
result_unit = "%"
reported_result = 97

[[record]]
line_notation = "N#Cc1ccc2nc(C(=O)NCc3ccnc(OCCCc4nc[nH]n4)c3)[nH]c(=O)c2c1"
result_unit = "%"
reported_result = 96

[[record]]
line_notation = "COc1ccc2nc(C(=O)NCc3cccc(OCCSc4nc[nH]n4)c3)[nH]c(=O)c2c1"
result_unit = "%"
reported_result = 99

[[record]]
line_notation = "O=C(NCc1cccc(OCCOc2nc[nH]n2)c1)c1nc2ccc(F)c(NCc3cccc(OCCOc4nc[nH]n4)c3)c2c(=O)[nH]1"
result_unit = "%"
reported_result = 97

[[record]]
line_notation = "N#Cc1ccc2nc(C(=O)NCc3ccnc(OCCSc4nc[nH]n4)c3)[nH]c(=O)c2c1"
result_unit = "%"
reported_result = 89

[[record]]
line_notation = "N#Cc1ccc2nc(C(=O)NCc3cccc(OCCSc4nc[nH]n4)c3)[nH]c(=O)c2c1"
result_unit = "%"
reported_result = 97


###

# subject_of_test: MMP-13 (Homo sapiens)
# Construct: purchased GenzymeTechne
# assay_method_text: MMP-13 inhibitory activity (fluorogenic substrate Cy3-PLGLK(Cy5Q)AR-NH2 enzyme assay)
# Type: biochemical
# run_conditions: compound 1 μM; 37° C., 40 min; APMA-activated MMP-13 precursor; read-out: MMP-13 inhibitory rate (%) at 1 μM
value_type: inhibition at 1 µM (%)

[[record]]
compound = "O=C(CCCOc1cccc(CNC(=O)c2nc3ccccc3c(=O)[nH]2)c1)Nc1nc[nH]n1 [Example 40]"
subject_of_test = "MMP-13 (Homo sapiens)"
reported_result = 94

[[record]]
compound = "O=C(NCc1cccc(OCCOc2nc[nH]n2)c1)c1nc2ccc(F)c(F)c2c(=O)[nH]1 [Example 44]"
subject_of_test = "MMP-13 (Homo sapiens)"
reported_result = 98

[[record]]
compound = "COC(=O)c1ccc(OCCn2ncc3nc(C(=O)NCc4cccc(OCCOc5nc[nH]n5)c4)[nH]c(=O)c32)cc1 [Example 47]"
subject_of_test = "MMP-13 (Homo sapiens)"
reported_result = 98

[[record]]
compound = "N#Cc1ccc2nc(C(=O)NCc3cccc(OCCCSc4nc[nH]n4)c3)[nH]c(=O)c2c1 [Example 15]"
subject_of_test = "MMP-13 (Homo sapiens)"
reported_result = 98

[[record]]
compound = "N#Cc1ccc2nc(C(=O)NCc3cccc(COCc4nc[nH]n4)c3)[nH]c(=O)c2c1 [Example 31]"
subject_of_test = "MMP-13 (Homo sapiens)"
reported_result = 97

[[record]]
compound = "O=C(NCc1ccnc(OCCSc2nc[nH]n2)c1)c1nc2ccccc2c(=O)[nH]1 [Example 19]"
subject_of_test = "MMP-13 (Homo sapiens)"
reported_result = 93

[[record]]
compound = "N#Cc1ccc2nc(C(=O)NCc3cccc(NC(=O)CCc4nc[nH]n4)c3)[nH]c(=O)c2c1 [Example 32]"
subject_of_test = "MMP-13 (Homo sapiens)"
reported_result = 98

[[record]]
compound = "O=C(O)c1ccc(COCc2csc3nc(C(=O)NCc4ccnc(OCCCc5nc[nH]n5)c4)[nH]c(=O)c23)cc1 [Example 42]"
subject_of_test = "MMP-13 (Homo sapiens)"
reported_result = 98


###

# subject_of_test: MMP-13 (Homo sapiens)
# Construct: purchased GenzymeTechne
# assay_method_text: MMP-13 inhibitory activity (fluorogenic substrate Cy3-PLGLK(Cy5Q)AR-NH2 enzyme assay)
# Assay type: biochemical
# run_conditions: compound 1 μM; 37° C., 40 min; APMA-activated MMP-13 precursor; read-out: MMP-13 inhibitory rate (%) at 1 μM
value_type: inhibition at 1 µM (%)

[[record]]
line_notation = "O=C(NCc1cccc(OCCSc2nc[nH]n2)c1)c1nc2ccc(F)c(F)c2c(=O)[nH]1"
subject_of_test = "MMP-13 (Homo sapiens)"
reported_result = 99

[[record]]
line_notation = "Cc1cccc2nc(C(=O)NCc3cccc(OCCSc4nc[nH]n4)c3)[nH]c(=O)c12"
subject_of_test = "MMP-13 (Homo sapiens)"
reported_result = 98

[[record]]
line_notation = "O=C(O)c1ccc(OCCn2ncc3nc(C(=O)NCc4cccc(OCCOc5nc[nH]n5)c4)[nH]c(=O)c32)cc1"
subject_of_test = "MMP-13 (Homo sapiens)"
reported_result = 99

[[record]]
line_notation = "O=C(NCc1cccc(OCCOc2nc[nH]n2)c1)c1nc2scc(-c3ccco3)c2c(=O)[nH]1"
subject_of_test = "MMP-13 (Homo sapiens)"
reported_result = 96

[[record]]
line_notation = "Cc1ccc2nc(C(=O)NCc3cccc(OCCSc4nc[nH]n4)c3)[nH]c(=O)c2c1"
subject_of_test = "MMP-13 (Homo sapiens)"
reported_result = 97

[[record]]
line_notation = "Cc1csc2nc(C(=O)NCc3ccnc(OCCSc4nc[nH]n4)c3)[nH]c(=O)c12"
subject_of_test = "MMP-13 (Homo sapiens)"
reported_result = 100

[[record]]
line_notation = "O=C(NCc1ccnc(OCCCc2nc[nH]n2)c1)c1nc2ccccc2c(=O)[nH]1"
subject_of_test = "MMP-13 (Homo sapiens)"
reported_result = 95

[[record]]
line_notation = "N#CCc1csc2nc(C(=O)NCc3cccc(OCCOc4nc[nH]n4)c3)[nH]c(=O)c12"
subject_of_test = "MMP-13 (Homo sapiens)"
reported_result = 98


Value source: patent US7915267B2
